# experimental_target: Torsin-1A-interacting protein 1 (Homo sapiens) (UniProt Q5JTV8)
# Sequence (Q5JTV8 whole entry, looked up): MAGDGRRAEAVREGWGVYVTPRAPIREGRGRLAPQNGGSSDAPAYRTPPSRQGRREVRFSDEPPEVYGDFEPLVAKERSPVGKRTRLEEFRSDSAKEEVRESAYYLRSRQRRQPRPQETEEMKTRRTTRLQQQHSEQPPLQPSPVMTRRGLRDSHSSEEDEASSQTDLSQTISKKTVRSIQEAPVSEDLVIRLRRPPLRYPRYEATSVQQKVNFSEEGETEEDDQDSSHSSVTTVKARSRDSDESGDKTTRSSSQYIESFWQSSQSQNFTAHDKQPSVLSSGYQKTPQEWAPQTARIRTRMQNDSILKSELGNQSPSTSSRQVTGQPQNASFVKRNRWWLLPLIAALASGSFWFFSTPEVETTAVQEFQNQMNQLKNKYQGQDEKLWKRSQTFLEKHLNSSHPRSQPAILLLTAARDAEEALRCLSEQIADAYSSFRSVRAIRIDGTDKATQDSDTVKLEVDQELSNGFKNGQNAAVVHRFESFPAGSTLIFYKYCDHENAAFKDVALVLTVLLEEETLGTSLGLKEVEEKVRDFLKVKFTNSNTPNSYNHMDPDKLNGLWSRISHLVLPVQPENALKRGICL
# assay_comment: LAP1 binders from COS7 cell lysate, primary screen, small-molecule microarray, 635/667 nm fluorescence (AID 1116)
# condition_set: COS7-hLAP1 lysate binding, 635 nm fluorescence, higher = more signal
We use 0.5 as the dividing line for composite z-score: on or above the line is 1.0, below is 0.0.

Tell me whether composite z-score is at least 0.5 here: `Cc1ccc(S[C@]2(C(=O)O)CC(=O)N(C(C)C)[C@@H]2c2ccc(CO)cc2I)cc1`
1.0

Tell me whether composite z-score is at least 0.5 here: `CO[C@H]1O[C@H](CO)[C@@H](OC(=O)Nc2ccccc2)[C@H](OC(=O)Nc2ccccc2)[C@@H]1OC(=O)Nc1ccccc1`
1.0

Tell me whether composite z-score is at least 0.5 here: `C=C(CCCC)/C(=C/C[C@H](OC(C)=O)c1ccccc1OCCO)c1cc(C(=O)OC)ccc1OC`
0.0

Tell me whether composite z-score is at least 0.5 here: `CC(C)CNC(=O)[C@@]1(Cc2ccccc2I)c2ccccc2C(=O)N(C2CCCCC2)[C@H]1c1ccc(CO)cc1`
1.0

Tell me whether composite z-score is at least 0.5 here: `COC(=O)[C@@]1(Cc2ccccc2)N=C(c2ccc(OCCCO)cc2)O[C@H]1c1ccccc1`
1.0

Tell me whether composite z-score is at least 0.5 here: `C=C(CCCC)C(=O)CC[C@@H](OC(=O)c1ccccc1-c1ccccc1C(=O)O)c1ccc(OCCO)cc1`
1.0

Tell me whether composite z-score is at least 0.5 here: `C=C(COC)/C(=C/C[C@@H](OC(C)=O)c1ccc(OCCO)cc1)c1cnc2ccccc2c1`
0.0

Tell me whether composite z-score is at least 0.5 here: `C[N+](C)(C)CCCC[C@@H]1NC(=O)[C@H]2C[C@@H](C(=O)NCCCCCCNC(=O)CS)[C@@H](c3cccc(OCCO)c3)N2C1=O`
0.0

Tell me whether composite z-score is at least 0.5 here: `C=C(/C(=C/C[C@H](OC(C)=O)c1ccc(CO)o1)c1cc(C(=O)OC)ccc1OC)C(C)C`
0.0

Tell me whether composite z-score is at least 0.5 here: `COc1ccc(CCNC(=O)[C@@]2(Sc3ccc(C)cc3)CC(=O)N(C(C)C)[C@@H]2c2ccc(CO)cc2I)cc1`
0.0

Tell me whether composite z-score is at least 0.5 here: `C[C@@]1([C@@H](NC(=O)c2ccc(-c3ccccc3)cc2)c2ccc(Cl)cc2)C[C@H]1C1CCCCC1`
1.0

Tell me whether composite z-score is at least 0.5 here: `COc1ccc(C#Cc2ccc3c(c2)[C@]2(C(=O)N3)[C@H](C(=O)Nc3nc4ccccc4s3)[C@H]3C(=O)O[C@H](c4ccccc4)[C@H](c4ccccc4)N3[C@@H]2c2ccc(O)cc2)cc1`
1.0

Tell me whether composite z-score is at least 0.5 here: O=C1OCCC/C=C\[C@H]2OC34C=CCN(Cc5ccccc5)C(=O)[C@H]3N(CCCO)C(=O)[C@@H]4C12 (some centres undefined)
1.0

Tell me whether composite z-score is at least 0.5 here: `CC(C)C[C@@H]1NC(=O)[C@@H]2C[C@H](C(=O)O)[C@H](c3cccc(OCCO)c3)N2C1=O`
1.0

Tell me whether composite z-score is at least 0.5 here: `CCCC[C@@H]1C[C@H]1[C@@H](NC(=O)c1ccco1)c1ccc(-c2ccccc2)cc1`
0.0

Tell me whether composite z-score is at least 0.5 here: CN1C(=O)C2C=CC(C(O)c3ccccc3)N(N(c3ccccc3)c3ccccc3)C2C1=O (centres undefined)
1.0

Tell me whether composite z-score is at least 0.5 here: `CC(=O)NCCCC[C@@H]1NC(=O)[C@H]2C[C@@H](C(=O)NCCCCCCNC(=O)CS)[C@@H](c3ccc(O)cc3)N2C1=O`
0.0

Tell me whether composite z-score is at least 0.5 here: `CCOC(=O)C[C@H]1[C@H](OC(=O)c2ccc(C(=O)c3ccccc3)cc2)[C@@H](NC(=O)CC(C)C)c2cc(OCCCO)ccc2N1C(=O)c1ccc2ccccc2n1`
1.0

Tell me whether composite z-score is at least 0.5 here: O=C1C2C=CC(C(O)c3cc(C(F)(F)F)cc(C(F)(F)F)c3)N(n3cnnc3)C2C(=O)N1Cc1ccccc1 (centres undefined)
0.0

Tell me whether composite z-score is at least 0.5 here: `O=C(c1ccccc1)N1C(=O)[C@]2(COC(c3ccc(OCCCO)cc3)=N2)Cc2ccccc21`
1.0

Tell me whether composite z-score is at least 0.5 here: CC1(C)[C@@H]2CC(C(O)C3C=CC4C(=O)N(c5ccccc5)C(=O)C4N3Nc3ccc([N+](=O)[O-])cc3)=C[C@H]1C2 (some centres undefined)
1.0

Tell me whether composite z-score is at least 0.5 here: `COc1ccc(C(=O)Nc2ccc(CN3C(=O)[C@]4(O[C@H](CCO)[C@@H]([Si](C)(C)c5ccc(OC)cc5)[C@@H]4C)c4ccccc43)cc2)cc1`
0.0

Tell me whether composite z-score is at least 0.5 here: `CN(C)C(=O)[C@@]1(CCS(=O)(=O)c2ccccc2)COC(c2ccc(OCCCO)cc2)=N1`
1.0

Tell me whether composite z-score is at least 0.5 here: `COC(=O)[C@@]1(Cc2ccc(OC)cc2)[C@H]2c3cc(C(=O)N4CCCC4)n(Cc4ccc(C)c(F)c4F)c3C[C@H]2CN1C(=O)c1ccccc1`
0.0

Tell me whether composite z-score is at least 0.5 here: `C=CCOC(=O)[C@H]1[C@@H]2C(=O)O[C@@H](c3ccccc3)[C@@H](c3ccccc3)N2[C@@H](c2ccc(OCCOC(=O)[C@H]3C[C@H]4C(=O)N[C@@H](CCCCN(C)C)C(=O)N4[C@H]3c3ccc(O)cc3)cc2)[C@]12C(=O)Nc1ccc(I)cc12`
1.0

Tell me whether composite z-score is at least 0.5 here: `NC(=O)[C@@H]1[C@H]2C(=O)O[C@H](c3ccccc3)[C@H](c3ccccc3)N2[C@H](c2ccc(O)cc2)[C@@]12C(=O)Nc1ccccc12`
0.0

Tell me whether composite z-score is at least 0.5 here: `COC(=O)[C@@]1(Cc2ccc(OC)cc2)[C@H]2c3cc(C(=O)N(C)C)n(CCc4ccccn4)c3C[C@H]2CN1C(=O)c1ccccc1`
1.0

Tell me whether composite z-score is at least 0.5 here: `O=C(N1CCCCC1)[C@]1(Cc2ccccc2)N=C(c2ccc(OCCCO)cc2)O[C@@H]1c1ccccc1`
0.0

Tell me whether composite z-score is at least 0.5 here: `COC(=O)[C@@]1(Cc2ccc(F)cc2)[C@H]2c3cc(C(=O)N4CCCC4)n(CCCNc4ncc(C(F)(F)F)cc4Cl)c3C[C@H]2CN1C(=O)c1ccccc1`
1.0
